- system-under-test: T1, recombinant human MSLN ECD His-tag protein (Acro Biosystems, Catalog #MSN-H5223) (human, UniProt Q13421 296-580, limits assumed)
- T1 construct: extracellular domain; Bought protein; also called human MSLN protein; recombinant human MSLN-His tag; not shown: His-tag
- T1 sequence (Q13421 other isoform, or with tags, fused parts or gaps limits assumed): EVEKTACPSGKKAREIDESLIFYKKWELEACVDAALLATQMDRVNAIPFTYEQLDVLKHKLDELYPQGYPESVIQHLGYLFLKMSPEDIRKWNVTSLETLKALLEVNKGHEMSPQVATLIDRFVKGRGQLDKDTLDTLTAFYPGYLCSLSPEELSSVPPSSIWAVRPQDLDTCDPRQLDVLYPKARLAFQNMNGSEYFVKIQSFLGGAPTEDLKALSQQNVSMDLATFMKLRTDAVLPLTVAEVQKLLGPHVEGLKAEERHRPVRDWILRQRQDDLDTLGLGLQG
- protocol: BLI (Octet Red384), antibody on AHC sensor, human MSLN-His in solution
pKd: −log10 of the molar value.
observed-property: pKd

PR300159-3 (antibody, V domains shown, PTM removal variant of PR300159: heavy chain G33A and G55A) VH: QVQLVESGGGVVQPGRSLRLSCAASGFTFSSDAMNWVRQAPGKGLEWVAVIWNDASNKYYADSVKGRFTISRDNSKNTLYLQMNSLRAEDTAVYYCARDRGPLWPLDYWGQGTLVTVSS VL: DIQMTQSPSTLSASVGDRVTITCRASQSISRWLAWYQQKPGKAPKLLIYKASSLESGVPSRFSGSGSGTEFTLTISNLQPDDFATFYCQQYNSYSRTFGQGTKVEIKR ... > 12.00

Next, consider the following binder.
// query Specify reported pKd for the binder shown: PR300159-1 (antibody, V domains shown, PTM removal variant of PR300159: heavy chain G33A and D54E, light chain N92S) VH: QVQLVESGGGVVQPGRSLRLSCAASGFTFSSDAMNWVRQAPGKGLEWVAVIWNEGSNKYYADSVKGRFTISRDNSKNTLYLQMNSLRAEDTAVYYCARDRGPLWPLDYWGQGTLVTVSS VL: DIQMTQSPSTLSASVGDRVTITCRASQSISRWLAWYQQKPGKAPKLLIYKASSLESGVPSRFSGSGSGTEFTLTISNLQPDDFATFYCQQYSSYSRTFGQGTKVEIKR
// result > 12.00
